# target_system: T1, mouse TAPL truncation mutant devoid of the N-terminal 142 residues (ΔTMD0) (mouse, UniProt Q9JJ59 143-762)
# T1 construct: mouse TAPL (ABCB9), protein of 762 amino acids, lacking the N-terminal 142 residues (TMD0); Homodimer by the cryo-EM structures; A thrombin site stood between TAPL and eGFP-10XHis; residues of the site may be left at the C-terminus after cleavage; also called ABCB9; TAP-like; source: High Five (Hi5) insect cells, baculovirus; purified (anti-GFP DARPin agarose, on-column thrombin cleavage, gel …)
# T1 sequence (looked up): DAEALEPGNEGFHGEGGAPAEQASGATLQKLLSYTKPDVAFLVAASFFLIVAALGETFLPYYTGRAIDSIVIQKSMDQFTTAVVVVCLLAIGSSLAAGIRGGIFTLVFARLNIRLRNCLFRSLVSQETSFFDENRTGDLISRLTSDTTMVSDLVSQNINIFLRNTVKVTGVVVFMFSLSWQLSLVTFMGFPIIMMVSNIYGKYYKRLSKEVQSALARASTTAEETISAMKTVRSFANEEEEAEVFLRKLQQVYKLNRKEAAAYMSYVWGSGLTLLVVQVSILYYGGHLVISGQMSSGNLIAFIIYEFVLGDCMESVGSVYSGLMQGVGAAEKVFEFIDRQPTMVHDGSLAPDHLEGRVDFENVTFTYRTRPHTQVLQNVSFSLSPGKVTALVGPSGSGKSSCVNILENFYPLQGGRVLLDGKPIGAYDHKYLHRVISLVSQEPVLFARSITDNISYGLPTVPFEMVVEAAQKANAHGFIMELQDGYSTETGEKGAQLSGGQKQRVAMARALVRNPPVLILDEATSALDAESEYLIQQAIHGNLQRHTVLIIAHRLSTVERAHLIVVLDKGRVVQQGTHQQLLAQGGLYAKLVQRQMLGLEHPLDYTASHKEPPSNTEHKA
# protocol_text: MST; 0.2 μM Cy5-labeled peptide with serial 2-fold dilutions of DM-purified protein, 10 min at RT; Monolith NT.115 pico
# experimental_parameters: both partners purified
pKd: −log10 of the molar value. No end group written: not given here.

>  <binder>
RRYQNSTC(Cy5)L (synthetic 9-mer peptide with a single cysteine for labeling; also called Cy5-labeled peptide; source: synthetic peptide (ANYGEN Co., Ltd.), labeled with Cy5, desalted) [Cy5-labeled 9-mer peptide RRYQNSTC(Cy-5)L]

>  <pKd>
7.28

$$$$

Reference for the values: paper PMC9532399
